Biological target: AFP158/HLA-A*02:01 complex
Experiment: SPR
reported property: Kd (nM)
The reply should be a number in nM, with the unit left off.

Give recorded Kd. AS170036 VL1VH1 (scFv) scFv: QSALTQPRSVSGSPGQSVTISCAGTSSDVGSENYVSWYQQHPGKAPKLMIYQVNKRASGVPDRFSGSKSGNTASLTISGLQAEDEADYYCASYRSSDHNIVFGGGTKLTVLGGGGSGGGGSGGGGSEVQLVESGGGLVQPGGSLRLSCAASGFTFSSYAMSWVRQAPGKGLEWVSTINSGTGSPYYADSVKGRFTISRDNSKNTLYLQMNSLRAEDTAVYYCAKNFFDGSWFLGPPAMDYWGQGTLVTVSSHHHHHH
710

# return recorded Kd for entry AS170036 VL1VH1-98I108A (scFv) scFv: QSALTQPRSVSGSPGQSVTISCAGTSSDVGSENYVSWYQQHPGKAPKLMIYQVNKRASGVPDRFSGSKSGNTASLTISGLQAEDEADYYCASYRSSDINIVFGGGTKLTVLGGGGSGGGGSGGGGSEVQLVESGGGLVQPGGSLRLSCAASGFTFSSYAMSWVRQAPGKGLEWVSTINSGTGSPYYADSVKGRFTISRDNSKNTLYLQMNSLRAEDTAVYYCAKNFFDGSWFLAPPAMDYWGQGTLVTVSSHHHHHH
22

Fill in reported Kd for this entry: AS170036 VL1VH1-56N98I (scFv) scFv: QSALTQPRSVSGSPGQSVTISCAGTSSDVGSENYVSWYQQHPGKAPKLMIYQVNKRASGVPDRFSGSKSGNTASLTISGLQAEDEADYYCASYRSSDINIVFGGGTKLTVLGGGGSGGGGSGGGGSEVQLVESGGGLVQPGGSLRLSCAASGFTFSSYAMSWVRQAPGKGLEWVSTINSGTNSPYYADSVKGRFTISRDNSKNTLYLQMNSLRAEDTAVYYCAKNFFDGSWFLGPPAMDYWGQGTLVTVSSHHHHHH
41
